I'd appreciate it if you could supply αs1 CN, 6 hours, 11° C. values for the items below.
# Assay System: T1, alpha-s1 casein from Bos taurus
# T1 chain: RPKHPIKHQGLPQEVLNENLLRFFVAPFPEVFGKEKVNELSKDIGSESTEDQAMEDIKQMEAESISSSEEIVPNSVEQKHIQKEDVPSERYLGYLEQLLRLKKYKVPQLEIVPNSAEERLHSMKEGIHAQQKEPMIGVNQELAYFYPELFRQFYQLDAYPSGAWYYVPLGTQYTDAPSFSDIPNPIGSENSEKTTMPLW
Could you give me the number in Volume? Just the number is fine.

Lab note: camel chymosin variant #154 (D290M) (protein) GKVAREPLTSYLDSQYFGKIYIGTPPQEFTVVFDTGSSDLWVPSIYCKSNVCKNHHRFDPRKSSTFRNLGKPLSIHYGTGSMEGFLGYDTVTVSNIVDPNQTVGLSTEQPGEVFTYSEFDGILGLAYPSLASEYSVPVFDNMMDRHLVARDLFSVYMDRNGQGSMLTLGAIDPSYYTGSLHWVPVTLQQYWQFTVDSVTINGVAVACVGGCQAILDTGTSVLFGPSSDILKIQMAIGATENRYGEFDVNCGNLRSMPTVVFEINGRDYPLSPSAYTSKDQGFCTSGFQGMNNSELWILGDVFIREYYSVFDRANNRVGLAKAI gave αs1 CN, 6 hours, 11° C. of 2.52e+07

Entry camel chymosin variant #155 (D290Q) (protein) GKVAREPLTSYLDSQYFGKIYIGTPPQEFTVVFDTGSSDLWVPSIYCKSNVCKNHHRFDPRKSSTFRNLGKPLSIHYGTGSMEGFLGYDTVTVSNIVDPNQTVGLSTEQPGEVFTYSEFDGILGLAYPSLASEYSVPVFDNMMDRHLVARDLFSVYMDRNGQGSMLTLGAIDPSYYTGSLHWVPVTLQQYWQFTVDSVTINGVAVACVGGCQAILDTGTSVLFGPSSDILKIQMAIGATENRYGEFDVNCGNLRSMPTVVFEINGRDYPLSPSAYTSKDQGFCTSGFQGQNNSELWILGDVFIREYYSVFDRANNRVGLAKAI , αs1 CN, 6 hours, 11° C. reported as 3.02e+07

Entry camel chymosin variant #156 (D290S) (protein) GKVAREPLTSYLDSQYFGKIYIGTPPQEFTVVFDTGSSDLWVPSIYCKSNVCKNHHRFDPRKSSTFRNLGKPLSIHYGTGSMEGFLGYDTVTVSNIVDPNQTVGLSTEQPGEVFTYSEFDGILGLAYPSLASEYSVPVFDNMMDRHLVARDLFSVYMDRNGQGSMLTLGAIDPSYYTGSLHWVPVTLQQYWQFTVDSVTINGVAVACVGGCQAILDTGTSVLFGPSSDILKIQMAIGATENRYGEFDVNCGNLRSMPTVVFEINGRDYPLSPSAYTSKDQGFCTSGFQGSNNSELWILGDVFIREYYSVFDRANNRVGLAKAI — recorded αs1 CN, 6 hours, 11° C. = 3.15e+07

The recorded αs1 CN, 6 hours, 11° C. for camel chymosin variant #166 (I297T) (protein) GKVAREPLTSYLDSQYFGKIYIGTPPQEFTVVFDTGSSDLWVPSIYCKSNVCKNHHRFDPRKSSTFRNLGKPLSIHYGTGSMEGFLGYDTVTVSNIVDPNQTVGLSTEQPGEVFTYSEFDGILGLAYPSLASEYSVPVFDNMMDRHLVARDLFSVYMDRNGQGSMLTLGAIDPSYYTGSLHWVPVTLQQYWQFTVDSVTINGVAVACVGGCQAILDTGTSVLFGPSSDILKIQMAIGATENRYGEFDVNCGNLRSMPTVVFEINGRDYPLSPSAYTSKDQGFCTSGFQGDNNSELWTLGDVFIREYYSVFDRANNRVGLAKAI is 2.1e+07
